The origin of these recorded values is the supplement of paper PMC8728848.

- Target: Gal(b1-4)GlcNAc(b1-3)Gal(b1-4)GlcNAc(b1-2)[Gal(b1-4)GlcNAc(b1-3)Gal(b1-4)GlcNAc(b1-6)]Man(a1-6)[Gal(b1-4)GlcNAc(b1-3)Gal(b1-4)GlcNAc(b1-2)Man(a1-3)]Man(b1-4)GlcNAc(b1-4)GlcNAc
- Test description: glycan array binding signal (z-score within array); higher = stronger binding
- Measurement setup: glycan notation: IUPAC condensed, linker removed
Many of the other results were omitted from the sample, so the strongest signals are more common in it than they were.
Reported property: glycan array binding signal (z-score)
Numbers only.

Input line: Entry Si Bti9 1b-HA (Solanum lycopersicum) (protein) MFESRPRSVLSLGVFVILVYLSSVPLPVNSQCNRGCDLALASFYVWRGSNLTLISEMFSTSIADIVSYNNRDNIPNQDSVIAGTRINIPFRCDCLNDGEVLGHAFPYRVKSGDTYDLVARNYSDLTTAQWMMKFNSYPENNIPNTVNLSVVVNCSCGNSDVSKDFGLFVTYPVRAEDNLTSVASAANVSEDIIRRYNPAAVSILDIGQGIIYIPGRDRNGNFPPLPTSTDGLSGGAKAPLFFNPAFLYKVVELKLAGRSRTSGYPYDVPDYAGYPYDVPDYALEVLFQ has what glycan array binding signal (z-score)?
Output line: 2.69
